Data origin, for the record: ChEMBL document CHEMBL1144555

- Test system: Kluyveromyces marxianus
- ASSAY PROCEDURE: Antimicrobial activity against Candida pseudotropicalis
- Type: functional
MEASUREMENT LABEL: MIC

For orientation, consider the following solved cases.
COMPOUND | MIC
CCCCCCCCCCCCCC(=O)OCC(CO[C@@H]1O[C@H](CO)[C@@H](O)[C@H](O)[C@H]1O)OC(=O)CCCCCCCCCCCCC (stereo partly drawn) | > 128 µg/mL
CCCCCCCCCCCCCCCCCC(=O)OCC(CO[C@@H]1O[C@H](CO)[C@@H](O)[C@H](O)[C@H]1O)OC(=O)CCCCCCCCCCCCCCCCC (mixture of isomers) | > 128 µg/mL

Next compound, please.
Input: For the compound shown here, CCCCC/C=C/C/C=C/CCCCCCCC(=O)OC(COC(=O)CCCCCCCCC)CO[C@@H]1O[C@H](CO)[C@@H](O)[C@H](O)[C@H]1O (mixture of isomers) , give the reported MIC.
Output: > 128 µg/mL
